In this section, each of the compounds is paired with its reported CC50 at 24 h.
# procedure.details: Cytotoxicity against BALB/c mouse peritoneal macrophages assessed as cell viability after 24 hrs by MTT assay
# Type: cell-based, Peritoneal macrophage cell
# stated.conditions: read-out: TD50
value.type: CC50 at 24 h (µM)

INSERT INTO measurements (smiles_input, value_type, observed) VALUES
  ('O=[N+]([O-])c1cccc(/C=C/c2sc(Nc3ccccc3)n[n+]2-c2ccccc2)c1', 'CC50 at 24 h', 5.54),
  ('N#Cc1ccc(/C=C/c2sc(Nc3ccccc3)n[n+]2-c2ccccc2)cc1', 'CC50 at 24 h', 441),
  ('CCOc1ccc(/C=C/c2sc(Nc3ccccc3)n[n+]2-c2ccccc2)cc1', 'CC50 at 24 h', 9.73),
  ('O=[N+]([O-])c1ccc(/C=C/c2sc(Nc3ccccc3)n[n+]2-c2ccccc2)cc1', 'CC50 at 24 h', 5.49),
  ('Clc1ccc(/C=C/c2sc(Nc3ccccc3)n[n+]2-c2ccccc2)cc1', 'CC50 at 24 h', 12),
  ('C(=C\c1sc(Nc2ccccc2)n[n+]1-c1ccccc1)/c1ccccc1', 'CC50 at 24 h', 3.06),
  ('Brc1ccc(/C=C/c2sc(Nc3ccccc3)n[n+]2-c2ccccc2)cc1', 'CC50 at 24 h', 6.59),
  ('N=C(N)c1ccc(OCCCCCOc2ccc(C(=N)N)cc2)cc1', 'CC50 at 24 h', 2.21),
  ('COc1ccc(/C=C/c2sc(Nc3ccccc3)n[n+]2-c2ccccc2)cc1', 'CC50 at 24 h', 1.13),
  ('Cc1ccc(/C=C/c2sc(Nc3ccccc3)n[n+]2-c2ccccc2)cc1', 'CC50 at 24 h', 4.94);
